- Test system: hA2AAR (Homo sapiens, UniProt P29274)
- Sequence (P29274 whole entry): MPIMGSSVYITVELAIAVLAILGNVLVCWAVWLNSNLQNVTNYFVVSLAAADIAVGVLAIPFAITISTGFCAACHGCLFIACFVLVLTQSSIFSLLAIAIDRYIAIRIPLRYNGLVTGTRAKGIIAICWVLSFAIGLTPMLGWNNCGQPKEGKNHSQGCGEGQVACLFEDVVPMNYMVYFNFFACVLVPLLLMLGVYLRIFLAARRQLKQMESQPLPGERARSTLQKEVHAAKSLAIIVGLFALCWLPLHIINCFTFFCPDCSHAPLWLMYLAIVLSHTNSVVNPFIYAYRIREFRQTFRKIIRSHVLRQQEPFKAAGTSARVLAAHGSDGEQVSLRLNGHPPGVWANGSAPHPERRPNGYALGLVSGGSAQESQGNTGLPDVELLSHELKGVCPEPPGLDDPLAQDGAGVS
- Assay overview: Radioligand binding
- Run conditions: selectivity ratio of Ki values
Recorded endpoint: hA1/hA2A

For the compound C#CCCCCCC(=O)Nc1nc2nn(C)cc2c2nc(-c3ccco3)nn12 , what hA1/hA2A is on record?
>20.7

For the compound Cn1cc2c(nc(NC(=O)Nc3ccc(CC(=O)NCCCOCCOCCOCCCNC(=O)OC(C)(C)C)cc3)n3nc(-c4ccco4)nc23)n1 , what hA1/hA2A is on record?
>30.5

For the compound Cn1cc2c(nc(NC(=O)Nc3ccc(CC(=O)NCCCOCCOCCOCCCN)cc3)n3nc(-c4ccco4)nc23)n1.O=C(O)C(F)(F)F , what hA1/hA2A is on record?
>30

For the compound Cn1cc2c(nc(NC(=O)Nc3ccc(CC(=O)NCCCNC(=S)Nc4ccc(-c5c6ccc(=O)cc-6oc6cc(O)ccc56)c(C(=O)O)c4)cc3)n3nc(-c4ccco4)nc23)n1 , what hA1/hA2A is on record?
>96

For the compound Cn1cc2c(nc(NC(=O)Nc3ccc(CC(=O)NCCOCCOCCNC(=S)Nc4ccc(-c5c6ccc(=O)cc-6oc6cc(O)ccc56)c(C(=O)O)c4)cc3)n3nc(-c4ccco4)nc23)n1 , what hA1/hA2A is on record?
>94

For the compound Cn1cc2c(nc(NC(=O)Nc3ccc(CC(=O)NCCCNC(=O)OC(C)(C)C)cc3)n3nc(-c4ccco4)nc23)n1 , what hA1/hA2A is on record?
>66

====

- Test system: hA2AAR (Homo sapiens)
- Assay overview: Radioligand binding
- Run conditions: selectivity ratio of Ki values
Recorded endpoint: hA1/hA2A

For the compound Cn1cc2c(nc(NC(=O)Nc3ccc(CC(=O)NCCCCCN)cc3)n3nc(-c4ccco4)nc23)n1 , what hA1/hA2A is on record?
>49

For the compound Cn1cc2c(nc(NC(=O)Nc3ccc(CC(=O)NCCOCCOCCNC(=O)OC(C)(C)C)cc3)n3nc(-c4ccco4)nc23)n1 , what hA1/hA2A is on record?
>22

For the compound Cn1cc2c(nc(NC(=O)Nc3ccc(CC(=O)NCCCN)cc3)n3nc(-c4ccco4)nc23)n1 , what hA1/hA2A is on record?
>57

For the compound Cn1cc2c(nc(NC(=O)Nc3ccc(CC(=O)NCCCCCNC(=S)Nc4ccc(-c5c6ccc(=O)cc-6oc6cc(O)ccc56)c(C(=O)O)c4)cc3)n3nc(-c4ccco4)nc23)n1 , what hA1/hA2A is on record?
>94

For the compound Cn1cc2c(nc(NC(=O)Nc3ccc(CC(=O)NCCCCN)cc3)n3nc(-c4ccco4)nc23)n1 , what hA1/hA2A is on record?
>58

For the compound Cn1cc2c(nc(NC(=O)Nc3ccc(CC(=O)NCCOCCOCCN)cc3)n3nc(-c4ccco4)nc23)n1.O=C(O)C(F)(F)F , what hA1/hA2A is on record?
>37.4

For the compound C#CCCCCC(=O)Nc1nc2nn(C)cc2c2nc(-c3ccco3)nn12 , what hA1/hA2A is on record?
5.9

====

- Test system: UniProtKB P0DMS8
- Sequence (P0DMS8 whole entry): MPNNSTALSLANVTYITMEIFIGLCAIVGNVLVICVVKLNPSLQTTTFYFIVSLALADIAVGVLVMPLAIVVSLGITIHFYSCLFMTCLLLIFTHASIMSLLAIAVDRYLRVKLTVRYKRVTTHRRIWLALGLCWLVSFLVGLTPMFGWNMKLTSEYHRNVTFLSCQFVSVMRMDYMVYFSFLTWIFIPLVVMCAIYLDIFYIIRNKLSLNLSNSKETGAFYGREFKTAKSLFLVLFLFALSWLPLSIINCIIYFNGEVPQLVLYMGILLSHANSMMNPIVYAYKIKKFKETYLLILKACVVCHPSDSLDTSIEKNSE
- Assay overview: Radioligand binding
- Run conditions: selectivity ratio of Ki values
Can you tell me hA2A/hA3 for the items I'm about to list?

# value lookup — system UniProtKB P0DMS8, readout hA2A/hA3, item Cn1cc2c(nc(NC(=O)Nc3ccc(CC(=O)NCCCN)cc3)n3nc(-c4ccco4)nc23)n1 [Compound 9]
21.7

# value lookup — system UniProtKB P0DMS8, readout hA2A/hA3, item C#CCCCCC(=O)Nc1nc2nn(C)cc2c2nc(-c3ccco3)nn12 [Compound 21]
20.7

# value lookup — system UniProtKB P0DMS8, readout hA2A/hA3, item Cn1cc2c(nc(NC(=O)Nc3ccc(CC(=O)NCCOCCOCCNC(=O)OC(C)(C)C)cc3)n3nc(-c4ccco4)nc23)n1 [Compound 7]
6.1

# value lookup — system UniProtKB P0DMS8, readout hA2A/hA3, item Cn1cc2c(nc(NC(=O)Nc3ccc(CC(=O)NCCOCCOCCN)cc3)n3nc(-c4ccco4)nc23)n1.O=C(O)C(F)(F)F [Compound 12]
14

# value lookup — system UniProtKB P0DMS8, readout hA2A/hA3, item Cn1cc2c(nc(NC(=O)Nc3ccc(CC(=O)NCCCCCNC(=S)Nc4ccc(-c5c6ccc(=O)cc-6oc6cc(O)ccc56)c(C(=O)O)c4)cc3)n3nc(-c4ccco4)nc23)n1 [Compound 16]
1.1

# value lookup — system UniProtKB P0DMS8, readout hA2A/hA3, item Cn1cc2c(nc(NC(=O)Nc3ccc(CC(=O)NCCCCNC(=O)OC(C)(C)C)cc3)n3nc(-c4ccco4)nc23)n1 [Compound 5]
88

# value lookup — system UniProtKB P0DMS8, readout hA2A/hA3, item Cn1cc2c(nc(NC(=O)Nc3ccc(CC(=O)NCCCOCCOCCOCCCN)cc3)n3nc(-c4ccco4)nc23)n1.O=C(O)C(F)(F)F [Compound 13]
30.3

# value lookup — system UniProtKB P0DMS8, readout hA2A/hA3, item Cn1cc2c(nc(NC(=O)Nc3ccc(CC(=O)NCCCCCN)cc3)n3nc(-c4ccco4)nc23)n1 [Compound 11]
76.3

# value lookup — system UniProtKB P0DMS8, readout hA2A/hA3, item Cn1cc2c(nc(NC(=O)Nc3ccc(CC(=O)NCCCOCCOCCOCCCNC(=O)OC(C)(C)C)cc3)n3nc(-c4ccco4)nc23)n1 [Compound 8]
3.9

# value lookup — system UniProtKB P0DMS8, readout hA2A/hA3, item Cn1cc2c(nc(NC(=O)Nc3ccc(CC(=O)NCCCCNC(=S)Nc4ccc(-c5c6ccc(=O)cc-6oc6cc(O)ccc56)c(C(=O)O)c4)cc3)n3nc(-c4ccco4)nc23)n1 [Compound 15]
0.82

# value lookup — system UniProtKB P0DMS8, readout hA2A/hA3, item Cn1cc2c(nc(NC(=O)Nc3ccc(CC(=O)NCCCCN)cc3)n3nc(-c4ccco4)nc23)n1 [Compound 10]
28.6

# value lookup — system UniProtKB P0DMS8, readout hA2A/hA3, item C#CCCCCCC(=O)Nc1nc2nn(C)cc2c2nc(-c3ccco3)nn12 [Compound 22]
37.6

# value lookup — system UniProtKB P0DMS8, readout hA2A/hA3, item C#CCCC(=O)Nc1nc2nn(C)cc2c2nc(-c3ccco3)nn12 [Compound 19]
16.5

# value lookup — system UniProtKB P0DMS8, readout hA2A/hA3, item Cn1cc2c(nc(NC(=O)Nc3ccc(CC(=O)NCCCNC(=S)Nc4ccc(-c5c6ccc(=O)cc-6oc6cc(O)ccc56)c(C(=O)O)c4)cc3)n3nc(-c4ccco4)nc23)n1 [Compound 14]
1

# value lookup — system UniProtKB P0DMS8, readout hA2A/hA3, item Cn1cc2c(nc(NC(=O)Nc3ccc(CC(=O)NCCOCCOCCNC(=S)Nc4ccc(-c5c6ccc(=O)cc-6oc6cc(O)ccc56)c(C(=O)O)c4)cc3)n3nc(-c4ccco4)nc23)n1 [Compound 17]
0.69

# value lookup — system UniProtKB P0DMS8, readout hA2A/hA3, item Cn1cc2c(nc(NC(=O)Nc3ccc(CC(=O)NCCCNC(=O)OC(C)(C)C)cc3)n3nc(-c4ccco4)nc23)n1 [Compound 4]
54.5

# value lookup — system UniProtKB P0DMS8, readout hA2A/hA3, item Cn1cc2c(nc(NC(=O)Nc3ccc(CC(=O)NCCCOCCOCCOCCCNC(=S)Nc4ccc(-c5c6ccc(=O)cc-6oc6cc(O)ccc56)c(C(=O)O)c4)cc3)n3nc(-c4ccco4)nc23)n1 [Compound 18]
0.44

# value lookup — system UniProtKB P0DMS8, readout hA2A/hA3, item C#CCCCC(=O)Nc1nc2nn(C)cc2c2nc(-c3ccco3)nn12 [Compound 20]
48.4

# value lookup — system UniProtKB P0DMS8, readout hA2A/hA3, item Cn1cc2c(nc(NC(=O)Nc3ccc(CC(=O)NCCCCCNC(=O)OC(C)(C)C)cc3)n3nc(-c4ccco4)nc23)n1 [Compound 6]
84.1

====

- Test system: hA2AAR (Homo sapiens, UniProt P29274)
- Assay overview: Radioligand binding
- Run conditions: selectivity ratio of Ki values
Can you tell me hA1/hA2A for the items I'm about to list?

# value lookup — system hA2AAR (Homo sapiens, UniProt P29274), readout hA1/hA2A, item Cn1cc2c(nc(NC(=O)Nc3ccc(CC(=O)NCCCCNC(=S)Nc4ccc(-c5c6ccc(=O)cc-6oc6cc(O)ccc56)c(C(=O)O)c4)cc3)n3nc(-c4ccco4)nc23)n1 [Compound 15]
>129

# value lookup — system hA2AAR (Homo sapiens, UniProt P29274), readout hA1/hA2A, item Cn1cc2c(nc(NC(=O)Nc3ccc(CC(=O)O)cc3)n3nc(-c4ccco4)nc23)n1 [Compound 3]
>10

# value lookup — system hA2AAR (Homo sapiens, UniProt P29274), readout hA1/hA2A, item Cn1cc2c(nc(NC(=O)Nc3ccc(CC(=O)NCCCCNC(=O)OC(C)(C)C)cc3)n3nc(-c4ccco4)nc23)n1 [Compound 5]
>33

# value lookup — system hA2AAR (Homo sapiens, UniProt P29274), readout hA1/hA2A, item Cn1cc2c(nc(NC(=O)Nc3ccc(CC(=O)NCCCCCNC(=O)OC(C)(C)C)cc3)n3nc(-c4ccco4)nc23)n1 [Compound 6]
>26.5

# value lookup — system hA2AAR (Homo sapiens, UniProt P29274), readout hA1/hA2A, item Cn1cc2c(nc(NC(=O)Nc3ccc(CC(=O)NCCCOCCOCCOCCCNC(=S)Nc4ccc(-c5c6ccc(=O)cc-6oc6cc(O)ccc56)c(C(=O)O)c4)cc3)n3nc(-c4ccco4)nc23)n1 [Compound 18]
>109
